experimentalTarget: T1, Human HEVM recombinant protein (Sino Biological, 10334-H02H) (human, UniProt Q92956 39-202)
T1 construct: construct known only by catalogue number; also called HVEM; human HVEM
T1 sequence (looked up): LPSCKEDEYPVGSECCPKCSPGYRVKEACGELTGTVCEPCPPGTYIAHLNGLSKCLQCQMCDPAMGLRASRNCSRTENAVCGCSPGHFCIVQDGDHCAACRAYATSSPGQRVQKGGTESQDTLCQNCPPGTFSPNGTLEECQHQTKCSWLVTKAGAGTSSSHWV
measurementDescription: competition ELISA, competitor LIGHT-His
Procedure: The competitive activity of HVEM antibody to BTLA or LIGHT was evaluated with ELISA-based competitive assay. Briefly Human HEVM recombinant protein (Sino Biological, 10334-H02H, 4 ug/ml, 100 ul/well) was coated to ELISA plate (Thermo Scientific, 469949, 4C overnight). […] Plate was read at 450 nm. The IC50 was calculated using GraphPad Prism software (GraphPad Software, Inc. San Diego, CA, USA).
For each entry below, report its IC50 value.
Enter the number, and then the unit.

Looking for the measured IC50 of Ab_054 (H5S19-21A17C) (antibody, V domains shown, also called Ab_54) VH: QVQLKESGPGLVAPSQSLSITCTVSGFSLTSYGVHWVRQPPGKGLEWLGVIWAGGITNYNSALMSRLSISTDNSRSQVFLKMNSLQTDDTAMYYCARDWERDSSGPFPYWGQGTLVTVSA VL: DIQMTQTTSSLSASLGDRVTISCSASQGISNYLNWYQQKPDGTVKLLIYYTSSLHSGVPSRFSGSGSGTDYSLTISNLEPEDIATYFCQQYSKLPWTFGGGTKLEIK , can you help?
369 nM

Name the reported IC50 value associated with the binder Ab_043 (H5S15-29A24A) (antibody, V domains shown, also called Ab_43) VH: EVQLQQSGAELVRPGALVKLSCKASGFNIKDDYMHWVKQRPEQGLEWIGWIDPENGNTIYDPKFQGKASITADTSSNTAYLQLSSLTSEDTAVYYCARGYSSSPYWGQGTLVTVSA VL: DIVLTQSPASLAVSLGQRATISCKASQSVDYDGNSYMNWYQQKPRQPPKLLIYAASNLESGIPARFRGSGSGTDFTLNIHPVEEEDAATYYCQQSNEDPFTFGSGTKLEIK
15.3 nM

Which IC50 value belongs to Ab_051 (H5S19-4A6A) (antibody, V domains shown, also called Ab_51) VH: QVQLKESGPGLVAPSQSLSITCTVSGFSLTGYGVNWVRQPPGKGLEWLGMIWGDGNTDYNSALKSRLSISKDNSKSQVFLKMNSLQTDDTARYYCARSYGSYWGQGTLVTVSA VL: QIVLTQSPAIMSASPGEKVTMTCSASSSVSYMYWYQQKPGSSPRLLIYDTSNLASGVPVRFSGSGSGTSYSLTISRMEAEDAATYYCQQWSSYPFTFGSGTKLEIK ?
18.6 nM

Look up IC50 for this binder: Ab_078 (H5S20-45A34A) (antibody, V domains shown, also called Ab_78) VH: EVQLQQSGAELVRSGASVKLSCAASGFNIKDYYMHWVKQRPEQGLEWIGWIDPENGDTEFAPKFQGKATLTADTSSNTAYLQLSSLTSEDTAVYYCNTRTLGYWGQGTLVTVSA VL: QIVLTQSPALMSASPGEKVTMTCTASSSVSYMYWYQQKPRSSPKPWIYLTSNLASGVPARFSGSGSGTSYSLTISSMEAEDAATYYCQQWSSNPLTFGAGTKLELR
14.5 nM
